This collection of values is drawn from ChEMBL document CHEMBL3091329.

assay notes: Cytotoxicity against human PBMC assessed as cell viability by MTS assay
Assay type: cell-based
condition notes: read-out: TC50 (the source's name)
readout kind: CC50 (µM)
State the answer as a number, implicitly in µM.

Need CC50 of "NCCCCN(C[C@H]1Cc2ccccc2CN1)[C@H]1CCCc2cccnc21" , thanks.
47

----------
Recorded IC50 for the following molecules
measurement target: C-X-C chemokine receptor type 4 (Homo sapiens, UniProt P61073)
Sequence (P61073 whole entry): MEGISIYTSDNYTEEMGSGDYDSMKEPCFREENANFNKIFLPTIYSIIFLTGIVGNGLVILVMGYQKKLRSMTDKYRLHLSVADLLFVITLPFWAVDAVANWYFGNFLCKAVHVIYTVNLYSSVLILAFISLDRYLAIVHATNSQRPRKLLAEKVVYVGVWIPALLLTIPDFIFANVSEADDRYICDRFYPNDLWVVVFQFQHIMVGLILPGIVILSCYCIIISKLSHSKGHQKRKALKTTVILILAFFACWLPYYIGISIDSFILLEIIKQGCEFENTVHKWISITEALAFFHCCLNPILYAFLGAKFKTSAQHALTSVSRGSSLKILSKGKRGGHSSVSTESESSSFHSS
assay notes: Antagonist activity at CXCR4 in human Chem-1 cells assessed as inhibition of SDF-1alpha-mediated calcium flux preincubated for 10 mins by FLIPR assay
State the answer as a number, implicitly in nM.

Please review the following examples before continuing.
NCCCCN(C[C@H]1Cc2ccccc2CN1Cc1cccnc1)[C@H]1CCCc2cccnc21 : 350
CN(C)CCCCN(C[C@H]1Cc2ccccc2CN1)[C@H]1CCCc2cccnc21 : 8
CC(C)N1Cc2ccccc2C[C@@H]1CN(CCCCN)[C@H]1CCCc2cccnc21 : 140

Need IC50 of "CN(C)C(=O)NCCCCN(C[C@H]1Cc2ccccc2CN1)[C@H]1CCCc2cccnc21" , thanks.
180

Need IC50 of "NCCCCN(C[C@H]1Cc2ccccc2CN1Cc1ccncc1)[C@H]1CCCc2cccnc21" , thanks.
660
